# Measurement target: recombinant DDB1-CRBN (Homo sapiens, UniProt Q96SW2)
# Construct: His; made in house; host or cells: High Five insect cells (baculovirus made and propagated in SF9 cells)
# Test details: Fluorescence polarization-based competition assay for CRBN binding
# Condition parameters: 200 nM CRBN-DDB1, 20 nM pomalidomide-fluorescein tracer 16, triplicates; read-out: FP_CRBN_binding: CRBN binding affinity, EC50
Threshold-based label: EC50 under 1 µM gives YES, EC50 not under 1 µM gives NO.

Known results for molecules:
Molecule: C[C@@H]1C[C@H](C)CN(S(=O)(=O)Oc2ccc(Nc3cccc4c3C(=O)N(C3CCC(=O)NC3=O)C4=O)cc2)C1 (some centres unmarked) [FL4-6]
Category label: NO

Molecule: O=C1CCC(c2cccc(OS(=O)(=O)N3CCC(c4ccncc4)CC3)c2)C(=O)N1 (centres unmarked) [FL6-16]
Category label: YES

Molecule: O=C1CCC(c2cccc(OS(=O)(=O)N3CCC(c4ccco4)C3)c2)C(=O)N1 (centres unmarked) [FL6-12]
Category label: YES

Molecule: C[C@@H]1C[C@H](C)CN(S(=O)(=O)Oc2cccc(Nc3ccc4c(c3)C(=O)N(C3CCC(=O)NC3=O)C4=O)c2)C1 (some centres unmarked) [FL1-6]
Category label: NO

Molecule: CN(C)c1ncc(CN(C)S(=O)(=O)Oc2ccc(C3CCC(=O)NC3=O)cc2)cn1 (centres unmarked) [FL5-18]
Category label: YES

I wonder whether C[C@@H](O)CN(C)S(=O)(=O)Oc1cccc(Nc2ccc3c(c2)C(=O)N(C2CCC(=O)NC2=O)C3=O)c1 (some centres unmarked) [FL1-1] has EC50 below 1 µM. Can you tell? YES

Continue with CC1c2cccn2CCN1S(=O)(=O)Oc1ccc(Nc2ccc3c(c2)C(=O)N(C2CCC(=O)NC2=O)C3=O)cc1 (centres unmarked) [FL2-19] NO

---

# Measurement target: recombinant DDB1-CRBN (Homo sapiens)
# Construct: His; made in house; host or cells: High Five insect cells (baculovirus made and propagated in SF9 cells)
# Test details: Fluorescence polarization-based competition assay for CRBN binding
# Condition parameters: 200 nM CRBN-DDB1, 20 nM pomalidomide-fluorescein tracer 16, triplicates; read-out: FP_CRBN_binding: CRBN binding affinity, EC50
pEC50: −log10 of the molar value.
Please mark 1 (yes) if the recorded pEC50 is equal to or greater than 6, and 0 (no) if it falls below.

Known results for compounds:
Compound: O=C1CCC(N2C(=O)c3cccc(Nc4cccc(OS(=O)(=O)N5CC(CCO)C5)c4)c3C2=O)C(=O)N1 (stereo not drawn)
Measurement target: recombinant DDB1-CRBN (Homo sapiens)
Category label: 1 (yes)
//
Compound: CC(O)CN(C)S(=O)(=O)Oc1ccc(Nc2cccc3c2C(=O)N(C2CCC(=O)NC2=O)C3=O)cc1 (stereo not drawn)
Measurement target: recombinant DDB1-CRBN (Homo sapiens)
Category label: 1 (yes)
//
Compound: Cc1cn2c(n1)CN(S(=O)(=O)Oc1cccc(Nc3cccc4c3C(=O)N(C3CCC(=O)NC3=O)C4=O)c1)CC2 (stereo not drawn)
Measurement target: recombinant DDB1-CRBN (Homo sapiens)
Category label: 1 (yes)

Decide: is the reported value of pEC50 for O=C1CCC(c2ccc(OS(=O)(=O)N3CCC(c4ccncc4)CC3)cc2)C(=O)N1 (stereo not drawn) equal to or greater than 6? 0 (no)

---

# Measurement target: recombinant DDB1-CRBN (Homo sapiens, UniProt Q96SW2)
# Construct: His; made in house; host or cells: High Five insect cells (baculovirus made and propagated in SF9 cells)
# Test details: Fluorescence polarization-based competition assay for CRBN binding
# Condition parameters: 200 nM CRBN-DDB1, 20 nM pomalidomide-fluorescein tracer 16, triplicates; read-out: FP_CRBN_binding: CRBN binding affinity, EC50
Hi there, I'd appreciate the recorded pEC50 for every entry that follows.
Give bare numbers, as −log10 of the molar value.

Below are some compounds; for each one, tell me its pEC50.
1. O=C1CCC(c2ccc(OS(=O)(=O)N3CCC(c4ccco4)C3)cc2)C(=O)N1 (stereo not shown) [FL5-12]
2. CC(C)(O)C1CCN(S(=O)(=O)Oc2ccc(Nc3cccc4c3C(=O)N(C3CCC(=O)NC3=O)C4=O)cc2)C1 (stereo not shown) [FL4-4]
3. O=C1CCC(c2cccc(OS(=O)(=O)N3CC4(CNC(=O)N4)C3)c2)C(=O)N1 (stereo not shown) [FL6-9]
4. O=C1CCC(N2C(=O)c3ccc(Nc4cccc(OS(=O)(=O)N5CCC(c6ccncc6)CC5)c4)cc3C2=O)C(=O)N1 (stereo not shown) [FL1-16]

[6.15, 6.16, 6.15, 6.17]

---

Hi there, I'd appreciate the recorded pEC50 for every entry that follows.
# Measurement target: recombinant DDB1-CRBN (Homo sapiens, UniProt Q96SW2)
# Construct: His; made in house; host or cells: High Five insect cells (baculovirus made and propagated in SF9 cells)
# Test details: Fluorescence polarization-based competition assay for CRBN binding
# Condition parameters: 200 nM CRBN-DDB1, 20 nM pomalidomide-fluorescein tracer 16, triplicates; read-out: FP_CRBN_binding: CRBN binding affinity, EC50
# Description: Prior to screening the compound library in the isogenic CPA, we assessed their CRBN binding affinities using a fluorescence-polarization-based competition assay with recombinant DDB1-CRBN and the fluorescent tracer 16 (Figure S2). […] We also assessed the cytotoxicity of the CRBN binders in RKO wild-type (WT) cells to determine the appropriate treatment concentration. […] Fluorescence Polarization‐based competition assay […]
Answers are plain numbers, as −log10 of the molar value.

Check out these entries, answers already filled in.
Compound: Cc1cn2c(n1)CN(S(=O)(=O)Oc1ccc(Nc3ccc4c(c3)C(=O)N(C3CCC(=O)NC3=O)C4=O)cc1)CC2 (stereo not drawn)
Measured result: 6.28

Compound: CN(C1CC1)S(=O)(=O)Oc1ccc(Nc2ccc3c(c2)C(=O)N(C2CCC(=O)NC2=O)C3=O)cc1 (stereo not drawn)
Measured result: 5.94

Compound: CN(Cc1ncnn1C)S(=O)(=O)Oc1ccc(Nc2cccc3c2C(=O)N(C2CCC(=O)NC2=O)C3=O)cc1 (stereo not drawn)
Measured result: 6.27

Compound: CC1c2cc(F)ccc2CCN1S(=O)(=O)Oc1cccc(Nc2ccc3c(c2)C(=O)N(C2CCC(=O)NC2=O)C3=O)c1 (stereo not drawn)
Measured result: 5.74

Compound: CC1(C)CN(S(=O)(=O)Oc2ccc(Nc3ccc4c(c3)C(=O)N(C3CCC(=O)NC3=O)C4=O)cc2)CCS1(=O)=O (stereo not drawn)
Measured result: 6.14

Attention now turns to another entry.
I am curious: what pEC50 value has been reported for C[C@@H]1C[C@H](C)CN(S(=O)(=O)Oc2cccc(C3CCC(=O)NC3=O)c2)C1 (stereo partly drawn) ? 6.02

---

Hi there, I'd appreciate the recorded pEC50 for every entry that follows.
# Measurement target: recombinant DDB1-CRBN (Homo sapiens)
# Construct: His; made in house; host or cells: High Five insect cells (baculovirus made and propagated in SF9 cells)
# Test details: Fluorescence polarization-based competition assay for CRBN binding
# Condition parameters: 200 nM CRBN-DDB1, 20 nM pomalidomide-fluorescein tracer 16, triplicates; read-out: FP_CRBN_binding: CRBN binding affinity, EC50
Give bare numbers, as −log10 of the molar value.

Check out these entries, answers already filled in.
Compound: CN(Cc1ncnn1C)S(=O)(=O)Oc1cccc(Nc2cccc3c2C(=O)N(C2CCC(=O)NC2=O)C3=O)c1 (stereo not shown)
pEC50: 6.35
//
Compound: O=C1CCC(N2C(=O)c3ccc(Nc4ccc(OS(=O)(=O)N5C[C@@H](F)[C@H](F)C5)cc4)cc3C2=O)C(=O)N1 (stereo partly shown)
pEC50: 5.90
//
Compound: CN(Cc1ccc2[nH]nnc2c1)S(=O)(=O)Oc1cccc(Nc2ccc3c(c2)C(=O)N(C2CCC(=O)NC2=O)C3=O)c1 (stereo not shown)
pEC50: 5.93
//
Compound: O=C1CCC(N2C(=O)c3cccc(Nc4cccc(OS(=O)(=O)N5C[C@@H](F)[C@H](F)C5)c4)c3C2=O)C(=O)N1 (stereo partly shown)
pEC50: 6.24
//
Compound: CC1(C)CN(S(=O)(=O)Oc2cccc(Nc3cccc4c3C(=O)N(C3CCC(=O)NC3=O)C4=O)c2)CCS1(=O)=O (stereo not shown)
pEC50: 6.46

Below are some compounds; for each one, tell me its pEC50.
1. CC1(C)CN(S(=O)(=O)Oc2cccc(Nc3cccc4c3C(=O)N(C3CCC(=O)NC3=O)C4=O)c2)CC2(CCOC2)O1 (stereo not shown)
2. O=C1CCC(N2C(=O)c3ccc(Nc4cccc(OS(=O)(=O)N5C[C@@H](F)[C@H](F)C5)c4)cc3C2=O)C(=O)N1 (stereo partly shown)
3. O=C1CCC(N2C(=O)c3cccc(Nc4cccc(OS(=O)(=O)N5CC6(CNC(=O)N6)C5)c4)c3C2=O)C(=O)N1 (stereo not shown)
4. CN(C)c1ncc(CN(C)S(=O)(=O)Oc2cccc(Nc3ccc4c(c3)C(=O)N(C3CCC(=O)NC3=O)C4=O)c2)cn1 (stereo not shown)
5. CN(Cc1ccc2c(c1)OCO2)S(=O)(=O)Oc1ccc(Nc2ccc3c(c2)C(=O)N(C2CCC(=O)NC2=O)C3=O)cc1 (stereo not shown)
6. CN(C1CC1)S(=O)(=O)Oc1ccc(Nc2cccc3c2C(=O)N(C2CCC(=O)NC2=O)C3=O)cc1 (stereo not shown)

[6.04, 6.22, 6.48, 6.44, 5.58, 5.97]

Below are some compounds; for each one, tell me its pEC50.
1. O=C1CCC(c2cccc(OS(=O)(=O)N3CC(CCO)C3)c2)C(=O)N1 (stereo not shown)
2. CN(C1CC1)S(=O)(=O)Oc1cccc(Nc2cccc3c2C(=O)N(C2CCC(=O)NC2=O)C3=O)c1 (stereo not shown)
3. Cc1cn2c(n1)CN(S(=O)(=O)Oc1cccc(C3CCC(=O)NC3=O)c1)CC2 (stereo not shown)
4. CC1(C)CN(S(=O)(=O)Oc2cccc(Nc3ccc4c(c3)C(=O)N(C3CCC(=O)NC3=O)C4=O)c2)CCS1(=O)=O (stereo not shown)

1: 5.90; 2: 5.99; 3: 5.97; 4: 6.28
